Target: p38α (Homo sapiens)
Sequence (Q16539 whole entry): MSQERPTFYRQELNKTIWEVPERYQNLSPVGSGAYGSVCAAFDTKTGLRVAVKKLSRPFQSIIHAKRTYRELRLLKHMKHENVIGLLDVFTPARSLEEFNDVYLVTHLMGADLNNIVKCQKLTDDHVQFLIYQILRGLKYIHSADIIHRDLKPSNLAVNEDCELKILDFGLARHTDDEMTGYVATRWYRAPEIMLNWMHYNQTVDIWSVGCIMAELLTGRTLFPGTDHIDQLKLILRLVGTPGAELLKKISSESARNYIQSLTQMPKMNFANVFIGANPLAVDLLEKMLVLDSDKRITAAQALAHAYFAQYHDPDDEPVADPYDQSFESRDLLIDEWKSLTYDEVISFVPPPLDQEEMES
Test: p38α/MK2 cascade assay
Type: biochemical
Conditions: Table 2; same p38α/MK2 cascade assay; 40 minutes preincubation; read-out: p38a/MK2 Cascade 40 min Pre-Incuabtion (% Inhibition): IC50
test_readout: IC50 (nM)
Numbers only; they are read as nM.

Identify IC50 associated with the compound COc1ccc(Cn2c(C)cc(OCc3ccccc3CNC(=O)Nc3cc(C(C)(C)C)nn3-c3ccc(O)cc3)c(C)c2=O)cc1Cl 16.2

Identify IC50 associated with the compound COc1ccc(Cn2c(C)cc(OCc3ccccc3CNC(=O)Nc3cc(C(C)(C)C)nn3-c3ccc(Cl)c(O)c3)c(C)c2=O)cc1Cl 15.4

Identify IC50 associated with the compound COc1ccc(Cn2c(C)cc(OCc3ccccc3CNC(=O)Nc3cc(C(C)(C)C)nn3-c3cccc(Cl)c3)c(Br)c2=O)c(OC)c1 10.8

Identify IC50 associated with the compound Cc1ccc(C(=O)NCC(O)CO)cc1-n1c(C)cc(OCc2ccccc2CNC(=O)Nc2cc(C(C)(C)C)nn2-c2ccc(Cl)c(O)c2)c(Cl)c1=O (centres unmarked) 1.3

Identify IC50 associated with the compound CNC(=O)c1ccc(C)c(-n2c(C)cc(OCc3ccccc3CNC(=O)Nc3cc(C(C)(C)C)nn3-c3ccc(Cl)c(O)c3)c(Cl)c2=O)c1 3.6

Identify IC50 associated with the compound Cc1ccc(-n2nc(C(C)(C)C)cc2NC(=O)NCc2cc(F)ccc2COc2cc(C)n(-c3cc(C(=O)O)ccc3C)c(=O)c2Br)cc1 4.54

Identify IC50 associated with the compound CSc1ccccc1Cn1c(C)cc(OCc2ccccc2CNC(=O)Nc2cc(C(C)(C)C)nn2-c2ccc(O)c(Cl)c2)c(Cl)c1=O 32.7

Identify IC50 associated with the compound COc1ccc(Cn2c(C)cc(OCc3ccccc3CNC(=O)Nc3cc(C(C)(C)C)nn3-c3ccc(Cl)c(O)c3)c(Cl)c2=O)cc1 4.7

Identify IC50 associated with the compound COc1cccc(Cn2c(C)cc(OCc3ccc(F)cc3CNC(=O)Nc3cc(C(C)(C)C)nn3-c3cccc(OC)c3)c(Cl)c2=O)c1 4.5

Identify IC50 associated with the compound CSc1ccccc1Cn1c(C)cc(OCc2ccccc2CNC(=O)Nc2cc(C(C)(C)C)nn2-c2cccc(O)c2)c(C)c1=O 13.2

Identify IC50 associated with the compound Cc1ccc(C(=O)NCC(O)CO)cc1-n1c(C)cc(OCc2ccccc2CNC(=O)Nc2cc(C(C)(C)C)nn2-c2cccc(OCCO)c2)c(Cl)c1=O (centres unmarked) 1.8
